System: OVCAR-3 ovarian
Assay: NCI tumour cell line growth inhibition, 48 h

compound | TGI
CC(=O)CNC(=O)OC(C)(C)C | > 100 µM
COC1/C=C\C=C(/C)C(=O)NC2=CC(=O)C(=O)C(=C2O)CC(C)CC(OC)C(O)C(C)/C=C(\C)C1OC(N)=O (stereo not given) | 19.7 µM
Brc1cc2nn(-c3ccccc3)nc2c2nonc12 | > 100 µM
Cn1c([O-])nc(-n2cc[n+](C)c2)cc1=O | > 100 µM
CCN1CCC(O)(C(C(=O)O)c2ccccc2)CC1 (stereo not given) | > 100 µM

====

System: NCI-H522 lung
Test: NCI tumour cell line growth inhibition, 48 h; in the data active means GI50 below about 0.43 µM; inactive means the rest
Outcomes: active, inactive

sample-smiles | assigned-label
OCc1c[nH]c2ccccc12 | inactive
CC(=O)OC[C@]1(C)C=C2C(=O)[C@](C)(O)C3(CC3)C(C)=C2[C@H]1O | active
CCC[CH2][Sn]([CH2]CCC)([O]C(=O)c1cccnc1SC)[O]C(=O)c1cccnc1SC | active
CN1CCN(C(=O)OCc2nc3c(N4CCOCC4)nc(Cl)nc3n2C)CC1 | inactive
Nc1cc(N)c2nc(-c3ccccc3)c(Nc3ccc(Cl)c(Cl)c3)nc2c1 | inactive
N#Cc1c(-c2ccc(F)cc2)nc(N/N=C/c2c[nH]c3ccccc23)nc1N1CCOCC1 | inactive
COc1cc(C2=C(c3ccccc3)COC2=O)cc(OC)c1OC | inactive
COc1ccc(/C(COc2c(-c3ccccc3)oc3ccccc3c2=O)=N\O)cc1 | inactive
CC(C)c1nc(CN(C)C(=O)N[C@H](C(=O)N[C@@H](Cc2ccccc2)C[C@H](O)[C@H](Cc2ccccc2)NC(=O)OCc2cncs2)C(C)C)cs1 | inactive
CC(C)(C)OC(=O)N1CCc2c(sc3ncnc(N/N=C/c4cccc5ccccc45)c23)C1 | inactive
CCOc1cc2c(Cl)ncnc2c(OCC)c1OCC | inactive

====

System: TK-10 renal
Assay: NCI tumour cell line growth inhibition, 48 h
Below is a list of entries, each paired with its recorded TGI value.
reported-property: TGI

compound | recorded-measurement
O=C(/N=N/C(=O)OCc1ccccc1)OCc1ccccc1 | > 100 µM
COC12C=C(C)C(CC1)CC2C(=O)O (centres undefined) | > 100 µM
O=C(Cc1ccc([N+](=O)[O-])cc1)OCC#CCOC(=O)Cc1ccc([N+](=O)[O-])cc1 | > 10 µM
O=C(N/N=C/c1ccccc1O)c1ccccc1Nc1ccnc(C(F)(F)F)c1 | > 100 µM

====

Test system: UACC-257 melanoma
Assay: NCI tumour cell line growth inhibition, 48 h
Below is a list of entries, each paired with its recorded TGI value.

compound | TGI
CC1=CC(=Nc2ccc(N(CCCl)CCCl)cc2)C=C(C)C1=O | 5.12 µM
CCC(C(=O)c1ccc(OC)c(OC)c1)N(C(=O)C(F)(F)F)C(C)c1ccccc1 (stereo not drawn) | > 100 µM
CC(=O)OCCN1c2ccccc2Sc2cnccc21 | > 10 µM
CC(C)(C)c1cc(/C=C(\C#N)C(=O)NCCO)cc(C(C)(C)C)c1O | 35 µM
COCC1OC(N2C(=O)NC(=O)[C@@H]3C=C4CCCCC4=C[C@@H]32)C(OC)C1OC (stereo partly drawn) | > 100 µM
COc1ccc(-c2c(C#N)c(N)nc3c2CCS(=O)(=O)c2ccccc2-3)cc1 | > 100 µM
O=C(Cc1ccc([N+](=O)[O-])cc1)OCC#CCOC(=O)Cc1ccc([N+](=O)[O-])cc1 | > 10 µM
NC(=O)c1cc2ccccc2o/c1=N/O | > 100 µM
O=C(/C(Br)=C/c1ccccc1)c1ccccc1 | 4.49 µM
C/C(CC(=O)Nc1ccc(C)cc1C)=N/N=C(N)N | > 100 µM
O=C1C=CC(=O)c2c(O)c(NCCc3ccc(O)cc3)c(Cl)c(O)c21 | > 10 µM
CC1(C)OC2[C@@H](CNC(=O)NC(=O)NC(=O)CI)O[C@@H](n3cnc4c(NC(=O)Nc5ccccc5)ncnc43)[C@H]2O1 (stereo partly drawn) | 17.8 µM
C[C@]12CC[C@H]3[C@@H](CC=C4C[C@@H](O)CC[C@@]43C)[C@@H]1CC[C@@H]2N(CCO)CCO | > 100 µM
